target: Mitogen-activated protein kinase kinase kinase kinase 1 (Homo sapiens, UniProt Q92918); test: Inhibition of HPK1(unknown origin) assessed as inhibition of SLP76 phosphorylation by cell based assay
Sequence (Q92918 whole entry): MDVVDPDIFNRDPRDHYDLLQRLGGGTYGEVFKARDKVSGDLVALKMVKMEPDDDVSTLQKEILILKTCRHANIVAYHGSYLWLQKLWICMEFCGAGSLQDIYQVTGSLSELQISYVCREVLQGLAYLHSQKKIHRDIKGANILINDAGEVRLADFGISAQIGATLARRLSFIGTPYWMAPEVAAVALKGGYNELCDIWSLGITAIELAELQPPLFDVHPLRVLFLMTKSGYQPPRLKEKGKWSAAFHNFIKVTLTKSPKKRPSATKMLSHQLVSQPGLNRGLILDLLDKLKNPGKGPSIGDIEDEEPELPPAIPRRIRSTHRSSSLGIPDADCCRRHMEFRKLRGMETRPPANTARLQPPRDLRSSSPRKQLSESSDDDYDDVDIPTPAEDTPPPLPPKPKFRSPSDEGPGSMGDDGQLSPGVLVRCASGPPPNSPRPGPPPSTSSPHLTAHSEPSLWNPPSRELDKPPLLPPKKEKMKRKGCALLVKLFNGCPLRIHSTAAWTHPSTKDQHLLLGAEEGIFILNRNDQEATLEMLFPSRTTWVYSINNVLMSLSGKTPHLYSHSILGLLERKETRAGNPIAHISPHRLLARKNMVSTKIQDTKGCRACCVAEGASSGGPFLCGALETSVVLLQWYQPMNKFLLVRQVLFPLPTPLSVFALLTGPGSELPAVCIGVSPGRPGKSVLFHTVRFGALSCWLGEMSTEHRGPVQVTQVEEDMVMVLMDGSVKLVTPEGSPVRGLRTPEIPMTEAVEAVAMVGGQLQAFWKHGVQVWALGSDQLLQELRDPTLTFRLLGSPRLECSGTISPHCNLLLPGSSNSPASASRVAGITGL
attribute.measured: EC50 (nM)
Report as a plain number; the unit nM is understood.

// query Would you kindly share the measured EC50 for Cn1cc(Nc2ncc(C3=CCC[C@@H](NC(=O)c4ccccc4)C3)nc2C(N)=O)cn1 ?
// result 149

* * *

biological target: Tyrosine-protein kinase Lck (Homo sapiens, UniProt P06239)
Sequence (P06239 whole entry): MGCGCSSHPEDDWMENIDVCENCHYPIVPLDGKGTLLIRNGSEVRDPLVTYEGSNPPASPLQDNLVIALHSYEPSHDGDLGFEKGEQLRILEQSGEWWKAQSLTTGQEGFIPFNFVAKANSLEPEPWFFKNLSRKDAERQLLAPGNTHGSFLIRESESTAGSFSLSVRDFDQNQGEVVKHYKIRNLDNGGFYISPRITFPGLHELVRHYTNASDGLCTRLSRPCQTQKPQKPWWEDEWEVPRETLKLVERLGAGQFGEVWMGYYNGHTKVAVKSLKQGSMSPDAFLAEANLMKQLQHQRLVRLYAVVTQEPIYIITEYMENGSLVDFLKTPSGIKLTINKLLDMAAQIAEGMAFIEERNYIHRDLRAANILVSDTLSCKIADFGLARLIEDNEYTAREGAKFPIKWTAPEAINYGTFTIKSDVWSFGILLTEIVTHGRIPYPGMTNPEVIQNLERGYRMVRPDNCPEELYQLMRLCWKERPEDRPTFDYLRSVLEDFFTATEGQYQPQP
attribute.measured: IC50

// query Would you kindly share the measured IC50 for Cc1[nH]c2nnc(C)n2c(=O)c1CC(=O)Nc1ncc(Cc2ccccc2F)s1 ?
// result > 49.5 µM

This collection of values is drawn from ChEMBL document CHEMBL5137050.
